cell viability listing for selected molecules.
Tested on: H9c2 cardiomyocytes
Assay: Cell viability assay (MTT)
Assay type: cell-based, rat
Conditions: H9c2, 48 h, 100.0 µM

Molecule | Study System | cell viability
Cc1c(C)c(O)c2c(c1C)C(C)C(=O)OC2=O (stereo not drawn) [Compound 4, sclerin] | H9c2 cardiomyocytes | 56.2 ± 0.9 % of control
COc1c(OC)c(-c2c[nH]c3ccc(O)cc23)c(OC)c(OC)c1-c1c[nH]c2ccccc12 [Compound 8, petromurin C] | H9c2 cardiomyocytes | 55.8 ± 5.5 % of control
COc1c(OC)c(-c2c[nH]c3ccccc23)c(OC)c(OC)c1-c1c[nH]c2ccccc12 [Compound 7, asterriquinol D dimethyl ether] | H9c2 cardiomyocytes | 32.8 ± 1.4 % of control
C=C(C)C1CCC23C(O)CCC(C)C2(C)CCC(C)C3C1c1c[nH]c2ccccc12 (stereo not drawn) [Compound 5, 10,23-dihydro-24,25-dehydroaflavinine] | H9c2 cardiomyocytes | 10.1 ± 0.2 % of control
COC1=C(c2c[nH]c3ccccc23)C(=O)C(CC=C(C)C)=C(c2c[nH]c3ccccc23)C1=O [Compound 6, kumbicin D] | H9c2 cardiomyocytes | 21.6 ± 2.2 % of control
Cc1c(C)c(O)c2c(c1C)C(C)(O)OC2=O (stereo not drawn) [Compound 3, sclerolide] | H9c2 cardiomyocytes | 62.5 ± 4.6 % of control

---

Test system: Escherichia coli VKPM (B-7935)
Assay: Biofilm formation assay (MTT)
Format: cell-based
Settings: E. coli, 18 h
Biofilm formation, MIC50 reference

Compound | Qualifier Symbol | Biofilm formation, MIC50 (µM)
COc1c(OC)c(-c2c[nH]c3ccccc23)c(OC)c(OC)c1-c1c[nH]c2ccccc12 [Compound 7, asterriquinol D dimethyl ether] | > | 100
CNC(C)C1CCC(N)C(OC2C(N)CC(N)C(OC3OCC(C)(O)C(NC)C3O)C2O)O1 (stereo not shown) [Gentamycin, reference compound] | = | 5.34
Cc1c(C)c(O)c2c(c1C)C(C)C(=O)OC2=O (stereo not shown) [Compound 4, sclerin] | > | 100
COC1=C(c2c[nH]c3ccccc23)C(=O)C(CC=C(C)C)=C(c2c[nH]c3ccccc23)C1=O [Compound 6, kumbicin D] | = | 10.34

---

Assay: Competitive assay with 4-hydroxytamoxifen (MTT viability)
Assay type: cell-based
Conditions: human, MCF-7 cells, 8 at 10 µM, no 4-OHT, read-out: viability of MCF-7 cells
Property: viability at 48 h, 10 µM (%)

Sample Smiles | Property | Value Reported
COc1c(OC)c(-c2c[nH]c3ccc(O)cc23)c(OC)c(OC)c1-c1c[nH]c2ccccc12 | viability at 48 h, 10 µM | 76.1

---

Let's look at some compounds and their measured cell viability.
Tested on: MDA-MB-231 breast cancer cells
Experiment: Cell viability assay (MTT)
Type: cell-based, human
Settings: MDA-MB-231, 48 h, 100.0 µM

Compound | cell viability
Cc1c(C)c(O)c2c(c1C)C(C)C(=O)OC2=O (stereo not drawn) | 47.1 ± 6.2 % of control
COc1c(OC)c(-c2c[nH]c3ccccc23)c(OC)c(OC)c1-c1c[nH]c2ccccc12 | 43.5 ± 2.5 % of control
Cc1c(C)c(O)c2c(c1C)C(C)(O)OC2=O (stereo not drawn) [Compound 3, sclerolide] | 60.9 ± 3.6 % of control
COC1=C(c2c[nH]c3ccccc23)C(=O)C(CC=C(C)C)=C(c2c[nH]c3ccccc23)C1=O | 14.7 ± 0.6 % of control
C=C(C)C1CCC23C(O)CCC(C)C2(C)CCC(C)C3C1c1c[nH]c2ccccc12 (stereo not drawn) [Compound 5, 10,23-dihydro-24,25-dehydroaflavinine] | 10.6 ± 0.2 % of control
COc1c(OC)c(-c2c[nH]c3ccc(O)cc23)c(OC)c(OC)c1-c1c[nH]c2ccccc12 | 38.6 ± 1.7 % of control
